Attribute: MIC CL5137
# Test system: Enterococcus faecium CL5137, VanA
# ASSAY_PROTOCOL: MIC susceptibility test
# Assay type: cell-based
# CONDITION_LABEL: Enterococcus faecium CL5137, VanA
EXPERIMENTAL_ENDPOINT: MIC CL5137 (µg/mL)

>>> readout_number("CCCCCCCCCCNC1(C)CC(OC2C(Oc3c4cc5cc3Oc3ccc(cc3Cl)C(O)C3NC(=O)C(NC(=O)C5NC(=O)C(CC(N)=O)NC(=O)C(NC(=O)C(CC(C)C)NC)C(O)c5ccc(c(Cl)c5)O4)c4ccc(O)c(c4)-c4c(O)cc(O)cc4C(C(=O)O)NC3=O)OC(CO)C(O)C2O)OC(C)C1O (stereo not drawn) [N-decyl vancosamine vancomycin, reference compound]")
25
>>> readout_number("CNC(CC(C)C)C(=O)NC1C(=O)NC(CC(N)=O)C(=O)NC2C(=O)NC3C(=O)NC(C(=O)NC(C(=O)O)c4cc(O)cc(O)c4-c4cc3ccc4O)C(O)c3ccc(c(Cl)c3)Oc3cc2cc(c3OC2OC(CNCc3ccc(-c4ccc(Cl)cc4)cc3)C(O)C(O)C2OC2CC(C)(N)C(O)C(C)O2)Oc2ccc(cc2Cl)C1O (stereo not drawn)")
50
>>> readout_number("CCCCCCCCCCNC1(C)CC(OC2C(Oc3c4cc5cc3Oc3ccc(cc3Cl)C(O)C3NC(=O)C(NC(=O)C5NC(=O)C(CC(N)=O)NC(=O)C(NC(=O)C(CC(C)C)NC)C(O)c5ccc(c(Cl)c5)O4)c4ccc(O)c(c4)-c4c(O)cc(O)cc4C(C(=O)O)NC3=O)OC(CSc3nc(N)n[nH]3)C(O)C2O)OC(C)C1O (stereo not drawn)")
6.3
>>> readout_number("CCCCCCCCCCNC1(C)CC(OC2C(Oc3c4cc5cc3Oc3ccc(cc3Cl)C(O)C3NC(=O)C(NC(=O)C5NC(=O)C(CC(N)=O)NC(=O)C(NC(=O)C(CC(C)C)NC)C(O)c5ccc(c(Cl)c5)O4)c4ccc(O)c(c4)-c4c(O)cc(O)cc4C(C(=O)O)NC3=O)OC(CI)C(O)C2O)OC(C)C1O (stereo not drawn)")
6.3
>>> readout_number("CNC(CC(C)C)C(=O)NC1C(=O)NC(CC(N)=O)C(=O)NC2C(=O)NC3C(=O)NC(C(=O)NC(C(=O)O)c4cc(O)cc(O)c4-c4cc3ccc4O)C(O)c3ccc(c(Cl)c3)Oc3cc2cc(c3OC2OC(CO)C(O)C(O)C2OC2CC(C)(NCc3ccc(-c4ccc(Cl)cc4)cc3)C(O)C(C)O2)Oc2ccc(cc2Cl)C1O (stereo not drawn) [N-4-(4-chlorophenyl)benzyl vancomycin, reference compound]")
13

* * *

# Test system: Bacillus cereus (ATCC 11778)
# ASSAY_PROTOCOL: MIC susceptibility test, microdilution with MTT readout
# Format: cell-based
# CONDITION_LABEL: Bacillus ceres ATCC11778
Measured MIC BC of individual entries
EXPERIMENTAL_ENDPOINT: MIC BC (µg/mL)

>>> readout_number("CNC(CC(C)C)C(=O)NC1C(=O)NC(CC(N)=O)C(=O)NC2C(=O)NC3C(=O)NC(C(=O)NC(C(=O)O)c4cc(O)cc(O)c4-c4cc3ccc4O)C(O)c3ccc(c(Cl)c3)Oc3cc2cc(c3OC2OC(CNC(=O)c3cnc4ccccc4n3)C(O)C(O)C2OC2CC(C)(N)C(O)C(C)O2)Oc2ccc(cc2Cl)C1O (stereo not shown) [XXXVII, Glucose-C6-N-2-quinoxaloyl Vancomycin]")
0.32
>>> readout_number("CNC(CC(C)C)C(=O)NC1C(=O)NC(CC(N)=O)C(=O)NC2C(=O)NC3C(=O)NC(C(=O)NC(C(=O)O)c4cc(O)cc(O)c4-c4cc3ccc4O)C(O)c3ccc(c(Cl)c3)Oc3cc2cc(c3OC2OC(CSC(C)C)C(O)C(O)C2OC2CC(C)(N)C(O)C(C)O2)Oc2ccc(cc2Cl)C1O (stereo not shown) [LIII, Glucose-C6-thiopropianato Vancomycin]")
1.3
>>> readout_number("CCCCCCCCCCNC1(C)CC(OC2C(Oc3c4cc5cc3Oc3ccc(cc3Cl)C(O)C3NC(=O)C(NC(=O)C5NC(=O)C(CC(N)=O)NC(=O)C(NC(=O)C(CC(C)C)NC)C(O)c5ccc(c(Cl)c5)O4)c4ccc(O)c(c4)-c4c(O)cc(O)cc4C(C(=O)O)NC3=O)OC(CSc3nc(N)n[nH]3)C(O)C2O)OC(C)C1O (stereo not shown) [LXXII]")
2.5
>>> readout_number("CCCCCCCCCCNC1(C)CC(OC2C(Oc3c4cc5cc3Oc3ccc(cc3Cl)C(O)C3NC(=O)C(NC(=O)C5NC(=O)C(CC(N)=O)NC(=O)C(NC(=O)C(CC(C)C)NC)C(O)c5ccc(c(Cl)c5)O4)c4ccc(O)c(c4)-c4c(O)cc(O)cc4C(C(=O)O)NC3=O)OC(CI)C(O)C2O)OC(C)C1O (stereo not shown)")
1.0
>>> readout_number("CNC(CC(C)C)C(=O)NC1C(=O)NC(CC(N)=O)C(=O)NC2C(=O)NC3C(=O)NC(C(=O)NC(C(=O)O)c4cc(O)cc(O)c4-c4cc3ccc4O)C(O)c3ccc(c(Cl)c3)Oc3cc2cc(c3OC2OC(CNCc3ccc(-c4ccc(Cl)cc4)o3)C(O)C(O)C2OC2CC(C)(NCc3ccc(-c4ccc(Cl)cc4)cc3)C(O)C(C)O2)Oc2ccc(cc2Cl)C1O (stereo not shown) [L]")
3.8
>>> readout_number("CNC(CC(C)C)C(=O)NC1C(=O)NC(CC(N)=O)C(=O)NC2C(=O)NC3C(=O)NC(C(=O)NC(C(=O)O)c4cc(O)cc(O)c4-c4cc3ccc4O)C(O)c3ccc(c(Cl)c3)Oc3cc2cc(c3OC2OC(CNCc3ccc(-c4ccc(Cl)cc4)cc3)C(O)C(O)C2OC2CC(C)(N)C(O)C(C)O2)Oc2ccc(cc2Cl)C1O (stereo not shown) [XXIX]")
0.63
>>> readout_number("CNC(CC(C)C)C(=O)NC1C(=O)NC(CC(N)=O)C(=O)NC2C(=O)NC3C(=O)NC(C(=O)NC(C(=O)O)c4cc(O)cc(O)c4-c4cc3ccc4O)C(O)c3ccc(c(Cl)c3)Oc3cc2cc(c3OC2OC(CNC(=O)c3cccs3)C(O)C(O)C2OC2CC(C)(N)C(O)C(C)O2)Oc2ccc(cc2Cl)C1O (stereo not shown) [XXXIII]")
1.3

* * *

# Test system: Enterococcus faecium CL5137, VanA
# ASSAY_PROTOCOL: MIC susceptibility test
# Format: cell-based
# CONDITION_LABEL: Enterococcus faecium CL5137, VanA; read-out: MIC CL5137
EXPERIMENTAL_ENDPOINT: MIC

>>> result("CN[C@@H](CC(C)C)C(=O)N[C@H]1C(=O)N[C@@H](CC(N)=O)C(=O)N[C@H]2C(=O)NC3C(=O)N[C@H](C(=O)N[C@@H](C(=O)O)c4cc(O)cc(O)c4-c4cc3ccc4O)[C@H](O)c3ccc(c(Cl)c3)Oc3cc2cc(c3OC2OC(CSc3nnc(NN)n3N)C(O)C(O)C2OC2CC(C)(N)C(O)C(C)O2)Oc2ccc(cc2Cl)[C@H]1O (stereo partly shown) [LXXVII]")
"63 µg/mL"
>>> result("CN[C@@H](CC(C)C)C(=O)N[C@H]1C(=O)N[C@@H](CC(N)=O)C(=O)N[C@H]2C(=O)NC3C(=O)N[C@H](C(=O)N[C@@H](C(=O)O)c4cc(O)cc(O)c4-c4cc3ccc4O)[C@H](O)c3ccc(c(Cl)c3)Oc3cc2cc(c3OC2OC(CSc3nnnn3C)C(O)C(O)C2OC2CC(C)(N)C(O)C(C)O2)Oc2ccc(cc2Cl)[C@H]1O (stereo partly shown) [LVIII]")
"> 50 µg/mL"
>>> result("CN[C@@H](CC(C)C)C(=O)N[C@H]1C(=O)N[C@@H](CC(N)=O)C(=O)N[C@H]2C(=O)NC3C(=O)N[C@H](C(=O)N[C@@H](C(=O)O)c4cc(O)cc(O)c4-c4cc3ccc4O)[C@H](O)c3ccc(c(Cl)c3)Oc3cc2cc(c3OC2OC(CNCc3cc(Cl)ccc3O)C(O)C(O)C2OC2CC(C)(N)C(O)C(C)O2)Oc2ccc(cc2Cl)[C@H]1O (stereo partly shown) [XXXIX]")
"> 50 µg/mL"
>>> result("CN[C@@H](CC(C)C)C(=O)N[C@H]1C(=O)N[C@@H](CC(N)=O)C(=O)N[C@H]2C(=O)NC3C(=O)N[C@H](C(=O)N[C@@H](C(=O)O)c4cc(O)cc(O)c4-c4cc3ccc4O)[C@H](O)c3ccc(c(Cl)c3)Oc3cc2cc(c3OC2OC(CSc3nc(C)cc(O)n3)C(O)C(O)C2OC2CC(C)(N)C(O)C(C)O2)Oc2ccc(cc2Cl)[C@H]1O (stereo partly shown) [LXXVIII]")
"> 50 µg/mL"
>>> result("CN[C@@H](CC(C)C)C(=O)N[C@H]1C(=O)N[C@@H](CC(N)=O)C(=O)N[C@H]2C(=O)NC3C(=O)N[C@H](C(=O)N[C@@H](C(=O)O)c4cc(O)cc(O)c4-c4cc3ccc4O)[C@H](O)c3ccc(c(Cl)c3)Oc3cc2cc(c3OC2OC(CSc3nc(-c4ccccc4)c(-c4ccccc4)o3)C(O)C(O)C2OC2CC(C)(NCc3ccc(-c4ccc(Cl)cc4)cc3)C(O)C(C)O2)Oc2ccc(cc2Cl)[C@H]1O (stereo partly shown) [LXXXVII]")
"50 µg/mL"
>>> result("CN[C@@H](CC(C)C)C(=O)N[C@H]1C(=O)N[C@@H](CC(N)=O)C(=O)N[C@H]2C(=O)NC3C(=O)N[C@H](C(=O)N[C@@H](C(=O)O)c4cc(O)cc(O)c4-c4cc3ccc4O)[C@H](O)c3ccc(c(Cl)c3)Oc3cc2cc(c3OC2OC(CSc3nnc(C)c(O)n3)C(O)C(O)C2OC2CC(C)(NCc3ccc(-c4ccc(Cl)cc4)cc3)C(O)C(C)O2)Oc2ccc(cc2Cl)[C@H]1O (stereo partly shown) [LXXXVI]")
"3.2 µg/mL"
>>> result("CN[C@@H](CC(C)C)C(=O)N[C@H]1C(=O)N[C@@H](CC(N)=O)C(=O)N[C@H]2C(=O)NC3C(=O)N[C@H](C(=O)N[C@@H](C(=O)O)c4cc(O)cc(O)c4-c4cc3ccc4O)[C@H](O)c3ccc(c(Cl)c3)Oc3cc2cc(c3OC2OC(COS(=O)(=O)c3c(C)cc(C)cc3C)C(O)C(O)C2OC2CC(C)(NCc3ccc(-c4ccc(Cl)cc4)cc3)C(O)C(C)O2)Oc2ccc(cc2Cl)[C@H]1O (stereo partly shown) [XLII]")
"6.3 µg/mL"
>>> result("CN[C@@H](CC(C)C)C(=O)N[C@H]1C(=O)N[C@@H](CC(N)=O)C(=O)N[C@H]2C(=O)NC3C(=O)N[C@H](C(=O)N[C@@H](C(=O)O)c4cc(O)cc(O)c4-c4cc3ccc4O)[C@H](O)c3ccc(c(Cl)c3)Oc3cc2cc(c3OC2OC(CSc3nc(C)cc(O)n3)C(O)C(O)C2OC2CC(C)(NCc3ccc(-c4ccc(Cl)cc4)cc3)C(O)C(C)O2)Oc2ccc(cc2Cl)[C@H]1O (stereo partly shown) [LXXXV]")
"6.3 µg/mL"
>>> result("CCCCCCCCCCNC1(C)CC(OC2C(Oc3c4cc5cc3Oc3ccc(cc3Cl)[C@@H](O)[C@@H](NC(=O)[C@H](CC(C)C)NC)C(=O)N[C@@H](CC(N)=O)C(=O)N[C@H]5C(=O)NC3C(=O)N[C@H](C(=O)N[C@@H](C(=O)O)c5cc(O)cc(O)c5-c5cc3ccc5O)[C@H](O)c3ccc(c(Cl)c3)O4)OC(CSc3nc(-c4ccccc4)c(-c4ccccc4)o3)C(O)C2O)OC(C)C1O (stereo partly shown) [LXXXII]")
"> 50 µg/mL"
>>> result("CN[C@@H](CC(C)C)C(=O)N[C@H]1C(=O)N[C@@H](CC(N)=O)C(=O)N[C@H]2C(=O)NC3C(=O)N[C@H](C(=O)N[C@@H](C(=O)O)c4cc(O)cc(O)c4-c4cc3ccc4O)[C@H](O)c3ccc(c(Cl)c3)Oc3cc2cc(c3OC2OC(CSc3nc4cc(OC)ccc4[nH]3)C(O)C(O)C2OC2CC(C)(N)C(O)C(C)O2)Oc2ccc(cc2Cl)[C@H]1O (stereo partly shown) [LXV]")
"> 50 µg/mL"
>>> result("CN[C@@H](CC(C)C)C(=O)N[C@H]1C(=O)N[C@@H](CC(N)=O)C(=O)N[C@H]2C(=O)NC3C(=O)N[C@H](C(=O)N[C@@H](C(=O)O)c4cc(O)cc(O)c4-c4cc3ccc4O)[C@H](O)c3ccc(c(Cl)c3)Oc3cc2cc(c3OC2OC(CSc3nnnn3-c3ccc(O)cc3)C(O)C(O)C2OC2CC(C)(N)C(O)C(C)O2)Oc2ccc(cc2Cl)[C@H]1O (stereo partly shown) [LXVIII]")
"> 50 µg/mL"
>>> result("CN[C@@H](CC(C)C)C(=O)N[C@H]1C(=O)N[C@@H](CC(N)=O)C(=O)N[C@H]2C(=O)NC3C(=O)N[C@H](C(=O)N[C@@H](C(=O)O)c4cc(O)cc(O)c4-c4cc3ccc4O)[C@H](O)c3ccc(c(Cl)c3)Oc3cc2cc(c3OC2OC(CNC(=O)C(F)(F)F)C(O)C(O)C2OC2CC(C)(N)C(O)C(C)O2)Oc2ccc(cc2Cl)[C@H]1O (stereo partly shown) [XL, Glucose-C6-trifluoroacetamide Vancomycin]")
"> 50 µg/mL"
>>> result("CN[C@@H](CC(C)C)C(=O)N[C@H]1C(=O)N[C@@H](CC(N)=O)C(=O)N[C@H]2C(=O)NC3C(=O)N[C@H](C(=O)N[C@@H](C(=O)O)c4cc(O)cc(O)c4-c4cc3ccc4O)[C@H](O)c3ccc(c(Cl)c3)Oc3cc2cc(c3OC2OC(CSc3nc(N)cc(O)n3)C(O)C(O)C2OC2CC(C)(N)C(O)C(C)O2)Oc2ccc(cc2Cl)[C@H]1O (stereo partly shown) [LXIII]")
"> 50 µg/mL"
